Recorded protein stability index for the following variants
B1: PKD2L1 (parent)
chain: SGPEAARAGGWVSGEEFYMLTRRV

Variants of: B1
Test: protein stability index of a GFP-peptide fusion (GPS, HEK-293T) (PSI 1-6); higher = more stable;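 further: lentivirally expressed fusions sorted by FACS into six bins by GFP to DsRed ratio, PSI derived from sequencing read proportions per bin multiplied by bin number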
Conditions: c terminus: a fixed tail appended
The response must contain the number and no unit.

Answered examples (2):
Y18G
3.44
G10D
3.01

Briefly, protein stability index measured for S13Q : 3.19

Briefly, protein stability index measured for M19Q : 3.38

Briefly, protein stability index measured for G10P : 2.37

Briefly, protein stability index measured for E16Y : 2.02

Briefly, protein stability index measured for R23W : 2.87

Briefly, protein stability index measured for A6L : 3.07

Briefly, protein stability index measured for V12T : 2.31

Briefly, protein stability index measured for E16T : 2.26

Briefly, protein stability index measured for E16A : 1.92

Briefly, protein stability index measured for E4S : 3.46
